Kindly state self-cleavage kobs at 10000 uM GlcN6P for each of the entries shown.
B1: glmS ribozyme (parent)
chain: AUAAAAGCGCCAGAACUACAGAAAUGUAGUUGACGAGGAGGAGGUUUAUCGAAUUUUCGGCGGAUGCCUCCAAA

# Variants of: B1
# test.summary: self-cleavage kobs at 10000 uM GlcN6P; higher = faster cleavage; RNA array
# condition.parameters: with glucosamine-6-phosphate
This sample holds only a part of the variants without activity.

Worked cases, self-cleavage kobs at 10000 uM GlcN6P given:
mutations	self-cleavage kobs at 10000 uM GlcN6P
G60U A64G	< 1e-05 s⁻¹
C34U A48G	< 1e-05 s⁻¹
G29C A52U A53C C68G	< 1e-05 s⁻¹
G7A A12C A42C U49A G60C	< 1e-05 s⁻¹
U54A C61U G62A	< 1e-05 s⁻¹

Please go through the list and note self-cleavage kobs at 10000 uM GlcN6P for each variant.
1. G35U G60A
2. G7A G37A
3. G38U A64C
4. G60U C70G

1: < 1e-05 s⁻¹; 2: < 1e-05 s⁻¹; 3: < 1e-05 s⁻¹; 4: < 1e-05 s⁻¹
